Each record here notes measured DC50.
assay system: BTK (Homo sapiens)
Sequence (Q06187 whole entry): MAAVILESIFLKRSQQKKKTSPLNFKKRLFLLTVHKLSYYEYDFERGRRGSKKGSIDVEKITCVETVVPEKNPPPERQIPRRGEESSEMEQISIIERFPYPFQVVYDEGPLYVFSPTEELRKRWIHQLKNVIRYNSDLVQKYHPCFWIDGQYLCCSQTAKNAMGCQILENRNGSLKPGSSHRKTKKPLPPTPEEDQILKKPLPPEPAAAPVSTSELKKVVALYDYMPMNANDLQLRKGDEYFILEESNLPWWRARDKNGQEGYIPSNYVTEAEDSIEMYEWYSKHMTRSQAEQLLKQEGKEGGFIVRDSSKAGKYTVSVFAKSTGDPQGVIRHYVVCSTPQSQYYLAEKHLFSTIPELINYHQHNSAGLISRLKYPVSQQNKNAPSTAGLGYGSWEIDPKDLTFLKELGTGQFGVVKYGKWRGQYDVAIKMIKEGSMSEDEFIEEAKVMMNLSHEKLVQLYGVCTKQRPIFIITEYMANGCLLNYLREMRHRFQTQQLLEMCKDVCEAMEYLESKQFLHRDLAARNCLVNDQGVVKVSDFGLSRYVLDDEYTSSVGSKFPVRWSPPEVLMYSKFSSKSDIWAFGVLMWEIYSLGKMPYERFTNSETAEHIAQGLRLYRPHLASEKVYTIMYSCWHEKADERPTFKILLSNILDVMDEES
procedure summary: Degradation of BTK protein in Namalwa cells (Western blot; DC50, Dmax)
particulars: read-out: DC50 (BTK degradation); concentration giving 50% reduction of BTK expression level; cell line not given

{"compound": "Nc1ncnc2c1c(-c1ccc(Oc3ccccc3)cc1)nn2C1CCN(C2CCN(CCCN3CCC(c4ccc(N5CCC(=O)NC5=O)cc4)CC3)CC2)CC1", "test value": "10 to 50 nM"}
{"compound": "NC(=O)c1c(-c2ccc(Oc3ccccc3)cc2)nn2c1NCC[C@H]2C1CCN(CC2CCN(C(=O)N3CCN(Cc4ccc5c(c4)C(=O)N(C4CCC(=O)NC4=O)C5=O)CC3)CC2)CC1 (some centres unmarked)", "test value": "> 50 nM"}
{"compound": "Nc1ncnc2c1c(-c1ccc(Oc3ccccc3)cc1)nn2C1CCN(C2CCN(CC3CN(c4ccc5c(c4)C(=O)N(C4CCC(=O)NC4=O)C5=O)C3)CC2)CC1 (centres unmarked)", "test value": "> 50 nM"}
{"compound": "Nc1ncnc2c1c(-c1ccc(Oc3ccccc3)cc1)nn2C1CCN(CCN2CCC(CN3CCN(c4ccc(NC5CCC(=O)NC5=O)cc4)CC3)CC2)CC1 (centres unmarked)", "test value": "< 10 nM"}

Next, consider the following compound.
[Q] Recorded DC50 for Nc1ncnc2c1c(-c1ccc(Oc3ccccc3)cc1)nn2C1CCN(C2CCN(CCCN3CCC(c4ccc(NC5CCC(=O)NC5=O)cc4)CC3)CC2)CC1 (centres unmarked) with BTK (Homo sapiens), please?
[A] < 10 nM
